measured target: human α2B -adrenergic receptor (NGC-α2B) (Homo sapiens, UniProt P18089)
Sequence (P18089 1-450): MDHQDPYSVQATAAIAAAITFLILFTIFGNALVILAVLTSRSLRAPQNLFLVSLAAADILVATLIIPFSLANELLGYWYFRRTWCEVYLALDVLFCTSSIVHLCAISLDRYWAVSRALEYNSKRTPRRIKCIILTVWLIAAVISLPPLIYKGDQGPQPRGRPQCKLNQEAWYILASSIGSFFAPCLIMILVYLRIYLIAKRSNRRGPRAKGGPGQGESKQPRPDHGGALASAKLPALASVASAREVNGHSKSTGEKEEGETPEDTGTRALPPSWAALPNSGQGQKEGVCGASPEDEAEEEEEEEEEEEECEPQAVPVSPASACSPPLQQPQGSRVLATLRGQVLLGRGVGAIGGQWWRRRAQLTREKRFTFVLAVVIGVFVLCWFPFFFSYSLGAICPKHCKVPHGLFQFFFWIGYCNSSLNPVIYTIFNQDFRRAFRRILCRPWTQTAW
assay readout: pKi
Interpret pKi as the negative base-10 log of the concentration measured in mol/L.

Ask: Item COc1cccc(OC)c1OCCNCC1COc2ccccc2O1 (stereo not shown) has what recorded pKi?
Reply: 7.26
